Target: Cellular tumor antigen p53 (Homo sapiens) (UniProt P04637)
Sequence (P04637 whole entry, looked up): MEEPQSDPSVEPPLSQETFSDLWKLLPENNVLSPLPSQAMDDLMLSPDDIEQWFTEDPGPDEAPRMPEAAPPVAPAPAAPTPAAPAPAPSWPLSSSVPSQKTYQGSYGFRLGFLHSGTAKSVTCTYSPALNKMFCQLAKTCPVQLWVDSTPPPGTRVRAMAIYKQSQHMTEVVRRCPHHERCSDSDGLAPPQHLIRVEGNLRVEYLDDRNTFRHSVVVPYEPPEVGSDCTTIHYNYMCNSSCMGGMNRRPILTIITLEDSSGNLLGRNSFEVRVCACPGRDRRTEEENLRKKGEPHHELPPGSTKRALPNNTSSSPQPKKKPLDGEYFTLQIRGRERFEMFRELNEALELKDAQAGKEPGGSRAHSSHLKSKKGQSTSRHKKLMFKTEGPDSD
Test: kinase inhibitors altering GFP-p53 stability in HPV16-positive cells, imaging, known kinase inhibitor set, EGFP/DsRed ratio (AID 1053116);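 note: test concentration not given here; cells exposed to compounds for 24 h at 37 °C before reading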
Conditions: stronger effect = higher value; measured here: GFP-p53 positive objects count
Measure: EGFP object count
No unit in the answer, please; the number alone is enough.

N#Cc1cccc(Nc2ncc(-c3ccccc3)o2)c1 = 6
O=C(Nc1n[nH]c2cc(-c3cc(F)ccc3F)ccc12)C1CC1 = 4
Cc1ccc2c(-c3ccnc(Nc4ccccc4)n3)c(-c3ccc(F)cc3)nn2n1 = 6
Cc1ccc(NC(=O)CC2CC2)cc1-c1ccc(C(=O)NCC2CC2)cc1 = 6

QUERY: // fetch EGFP object count given entry COc1c(C(N)=O)cc(-c2ccc(Cl)cc2)cc1-c1ccc(S(N)(=O)=O)cc1
RESULT: 4

QUERY: // fetch EGFP object count given entry CCNC(=O)C1CCCN2C(=O)CCC(NC(=O)C(Cc3ccc(OP(=O)(O)O)cc3)NC(C)=O)C(=O)N12 (stereo unspecified)
RESULT: 6

Just for reference, PubChem BioAssay is where these values come from.
